Source listed as paper PMC7898822.

SYSTEM: Lin28_ZKD (Homo sapiens)
Construct: construct encoding amino acids 124–186 of human Lin28; His6; made in house; host or cells: Escherichia coli BL21 (DE3) Codon+ (RIL)
Sequence (Q9H9Z2 124-186): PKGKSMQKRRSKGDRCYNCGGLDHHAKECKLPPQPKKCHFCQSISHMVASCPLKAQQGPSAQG
EXPERIMENTAL DETAILS: Fluorescence polarization competition assay (displacement of let7FAM from Lin28_ZKD)
Format: binding
CONDITION LABEL: Table 1; 40 nM Lin28_ZKD, 10 nM FAM-preE-let-7; 10 mM HEPES, 150 mM NaCl, pH 7.4; 30 min at 25 °C; 384-well; repeated at least three times; read-out: IC 50 determined by fluorescence polarization
PARAMETER: pIC50
Conceptually, pIC50 converts a concentration in mol/L into minus its log10.

Quick check: pIC50 of ORN7: AGGAGAUAACU, PS-MOE (all 2'-MOE, all phosphorothioate, methylation of C and T or U not given here; further chemistry not fully specified) ? 6.79
